# credit: ChEMBL document CHEMBL3045690

Target: Type-1 angiotensin II receptor (Oryctolagus cuniculus)
Sequence (P34976 whole entry): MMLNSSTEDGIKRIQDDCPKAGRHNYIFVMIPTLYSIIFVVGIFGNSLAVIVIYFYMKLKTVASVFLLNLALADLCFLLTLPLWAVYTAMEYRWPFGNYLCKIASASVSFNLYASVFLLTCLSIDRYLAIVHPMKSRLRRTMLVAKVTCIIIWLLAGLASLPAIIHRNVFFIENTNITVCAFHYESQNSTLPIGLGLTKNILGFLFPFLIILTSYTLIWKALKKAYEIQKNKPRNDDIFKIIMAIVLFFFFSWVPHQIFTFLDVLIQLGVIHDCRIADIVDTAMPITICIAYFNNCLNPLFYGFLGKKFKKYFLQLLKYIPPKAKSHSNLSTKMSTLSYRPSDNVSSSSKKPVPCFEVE
Assay: Antagonist activity at AT1 receptor in Oryctolagus cuniculus (rabbit) aorta
pIC50: −log10 of the molar value.
measureName: pIC50

1. CCCSc1nnc(Cc2ccccc2)n1Cc1ccc(NC(=O)c2ccccc2C(=O)O)cc1
2. CCCCc1nnc(OCCc2ccccc2)n1Cc1ccc(NC(=O)c2ccccc2-c2nnn[nH]2)cc1
3. CCCCc1nnc([S+]([O-])Cc2ccc(Cl)cc2)n1Cc1ccc(NC(=O)c2ccccc2-c2nn[nH]n2)cc1 (stereo not drawn)
Arrange the items listed above so that pIC50 rises from first to last. // respond by listing labels in the order requested
1, 2, 3

====

Target: Type-1 angiotensin II receptor (Oryctolagus cuniculus, UniProt P34976)
Sequence (P34976 whole entry): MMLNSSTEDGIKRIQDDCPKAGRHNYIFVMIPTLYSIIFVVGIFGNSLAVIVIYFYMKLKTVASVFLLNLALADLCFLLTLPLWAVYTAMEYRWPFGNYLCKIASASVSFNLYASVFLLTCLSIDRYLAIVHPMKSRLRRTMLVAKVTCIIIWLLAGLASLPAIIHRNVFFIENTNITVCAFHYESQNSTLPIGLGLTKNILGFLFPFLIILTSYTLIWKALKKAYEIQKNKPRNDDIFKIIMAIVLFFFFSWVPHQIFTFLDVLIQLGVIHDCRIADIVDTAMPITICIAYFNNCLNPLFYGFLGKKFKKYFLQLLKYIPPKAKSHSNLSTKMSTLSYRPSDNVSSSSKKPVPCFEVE
measureName: IC50 (nM)

INSERT INTO results (compound, experimentaltarget, reported) VALUES
  ('CCCCc1nnc(SC(C)(C)C)n1Cc1ccc(NC(=O)c2ccccc2C(=O)O)cc1', 'Type-1 angiotensin II receptor (Oryctolagus cuniculus, UniProt P34976)', 890);

A. CCCCc1nnc(OCc2ccccc2)n1Cc1ccc(NC(=O)c2ccccc2-c2nnn[nH]2)cc1
B. CCCCc1nnc(S(=O)(=O)Cc2ccc(Cl)cc2)n1Cc1ccc(NC(=O)c2ccccc2-c2nnn[nH]2)cc1
C. CCCCc1nnc(NCc2ccc(Cl)cc2)n1Cc1ccc(NC(=O)c2ccccc2-c2nnn[nH]2)cc1
Ordering: ascending IC50. // respond by listing labels in the order requested
B, C, A
(B: 48 nM, C: 140 nM, A: 370 nM)

1. CCCCc1nnc([S+]([O-])Cc2ccc([N+](=O)[O-])cc2)n1Cc1ccc(NC(=O)c2ccccc2-c2nnn[nH]2)cc1 (stereo not drawn)
2. CCCCc1nnc(C(=O)N(C)c2ccccc2)n1Cc1ccc(NC(=O)c2ccccc2-c2nnn[nH]2)cc1
I'd appreciate it if you could identify which of 1 and 2 has the greater IC50. // return label of chosen record
2

A. CCCCc1nnc(S(C)(=O)=O)n1Cc1ccc(NC(=O)c2ccccc2-c2nnn[nH]2)cc1
B. CCCCc1nnc(SCc2ccccc2-c2nnn[nH]2)n1Cc1ccc(NC(=O)c2ccccc2-c2nnn[nH]2)cc1
Between A and B , which one has the lower reported IC50 value? // return label of chosen record
B
(B: 1.4 nM, A: 400 nM)
